pIC50 overview
Target: T1, PTH receptor of UMR106 cell line (rat osteoblast-like osteosarcoma cell line) (rat, UniProt P25961 27-591)
T1 construct: whole, on cells; The species follows from the cell line (rat); also called its receptor; the receptor
T1 sequence (looked up): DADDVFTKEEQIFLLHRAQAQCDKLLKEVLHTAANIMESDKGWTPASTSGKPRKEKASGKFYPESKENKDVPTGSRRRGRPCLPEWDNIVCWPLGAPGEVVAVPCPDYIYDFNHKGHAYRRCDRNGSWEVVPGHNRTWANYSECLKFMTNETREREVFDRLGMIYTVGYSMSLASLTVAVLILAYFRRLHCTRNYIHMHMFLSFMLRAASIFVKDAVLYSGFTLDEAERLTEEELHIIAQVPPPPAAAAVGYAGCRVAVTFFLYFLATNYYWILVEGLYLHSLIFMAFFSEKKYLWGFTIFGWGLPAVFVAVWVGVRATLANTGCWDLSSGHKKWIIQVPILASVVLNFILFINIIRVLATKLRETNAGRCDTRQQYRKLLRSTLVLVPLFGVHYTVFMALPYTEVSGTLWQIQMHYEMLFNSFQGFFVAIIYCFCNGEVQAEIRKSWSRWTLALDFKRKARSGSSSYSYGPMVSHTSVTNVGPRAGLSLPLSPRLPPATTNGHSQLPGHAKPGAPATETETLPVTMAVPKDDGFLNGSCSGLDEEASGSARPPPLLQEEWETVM
Test: competition with 125I-(Nle8,18Tyr34)-bPTH (1-34) for binding to UMR106 cells, 15 C, 4 h
Method: A binding test to PTH receptor was carried out as followings (see: Chohei Shigeno et al., The Journal of Biological Chemistry, 263(8):3864–3871(1988)): 10^5 UMR106 cells per well was added into a 24 well-plate and cultured for 4 to 8 days. […] Binding affinity of PTH to its receptor was determined by comparing competitive inhibition of rhPTH (1–84) and shPTH (1–84) against ligand binding to the receptor by using the ^125I-labelled (Nle^{8,18}Tyr^34)-bPTH (1–34) as a ligand. […]
pIC50: −log10 of the molar value.

[
  {
    "binder": "synthetic human PTH (shPTH (1-84), Sigma Chemical Co., USA) (ligand, UniProt P01270 32-115, looked up, mature; Control hormone, bought; also called synthetic PTH) SVSEIQLMHNLGKHLNSMERVEWLRKKLQDVHNFVALGAPLAPRDAGSQRPRKKEDNVLVESHEKSLGEADKADVNVLTKAKSQ",
    "pIC50": 7.73
  },
  {
    "binder": "human recombinant PTH (rhPTH (1-84)) (ligand, UniProt P01270 32-115, looked up, mature; also called recombinant human PTH; purified human PTH) SVSEIQLMHNLGKHLNSMERVEWLRKKLQDVHNFVALGAPLAPRDAGSQRPRKKEDNVLVESHEKSLGEADKADVNVLTKAKSQ",
    "pIC50": 7.76
  }
]
